Target: Cannabinoid receptor 1 (Homo sapiens, UniProt P21554)
Sequence (P21554 whole entry): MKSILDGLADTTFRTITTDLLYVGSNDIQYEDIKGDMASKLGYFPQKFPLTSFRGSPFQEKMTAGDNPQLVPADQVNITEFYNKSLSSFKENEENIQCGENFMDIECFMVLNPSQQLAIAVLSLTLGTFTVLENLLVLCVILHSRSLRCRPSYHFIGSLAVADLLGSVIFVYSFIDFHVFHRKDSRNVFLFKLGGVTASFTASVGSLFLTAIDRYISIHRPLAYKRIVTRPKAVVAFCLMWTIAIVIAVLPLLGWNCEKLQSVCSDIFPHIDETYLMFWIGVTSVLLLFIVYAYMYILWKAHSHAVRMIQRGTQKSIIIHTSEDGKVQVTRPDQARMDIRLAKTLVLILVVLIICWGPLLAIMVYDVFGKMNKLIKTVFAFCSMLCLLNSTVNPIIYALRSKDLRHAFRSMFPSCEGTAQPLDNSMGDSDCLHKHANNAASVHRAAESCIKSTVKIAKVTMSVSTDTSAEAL
Assay: Allosteric modulator activity at human CB1 receptor expressed in HEK293 cell membranes assessed as suppression of 100 nM CP55,940-induced [35S]GTPgammaS binding incubated for 60 mins by scintillation counting method
pIC50: −log10 of the molar value.
Documented pIC50 across a set of compounds
readout_type: pIC50

input_smiles: O=C(Nc1ccc(Cl)cc1)N[C@H]1C[C@H]1c1ccccc1
system: Cannabinoid receptor 1 (Homo sapiens, UniProt P21554)
result: < 5.00
//
input_smiles: COc1ccc(-c2cccc(N3CCCC3)n2)cc1NC(=O)Nc1ccc(Cl)cc1
system: Cannabinoid receptor 1 (Homo sapiens, UniProt P21554)
result: < 5.00
